tested on: HeLa cells; experiment: CPP uptake experiment: cellular fluorescence of FAM-labeled CPPs; assay type: cell-based, human; conditions: HeLa cells after incubation with 10 µM FAM-labeled CPP, 90 min, 37 °C; mean of two experiments (Table 1)
Catalogue of sequences with associated Fluorescence (RFU)
Enter your answer as a number in RFU; do not include the unit.

Here's what some known entries look like.
seq_text="RQARRNRRRALWKTLLKKVLKA [compound 446]" value_kind="Fluorescence (RFU)" observed_measurement=450.97
seq_text="YTAIAWVKAFIRKLRK [compound 351]" value_kind="Fluorescence (RFU)" observed_measurement=401.31

Report Fluorescence (RFU) for KLALKLALKAWKAALKLA [compound 372] please.
309.34

Follow-up entry: GLWRALWRALRSLWKLKRKV [compound 425]
384.64

Follow-up entry: WLRRIKAWLRRIKALNRQLGVAA [compound 471]
1011.42

Follow-up entry: CWKKKKKKKKKKKKKKKKKK [compound 429]
417.94

Follow-up entry: LNSAGYLLGKINLKALAALAKKIL [compound 473]
422.13

Follow-up entry: KLALKLALKALKAALKLA [compound 405]
440.41

Follow-up entry: LLKKRKVVRLIKFLLK [compound 343]
435.30

Follow-up entry: GLFKALLKLLKSLWKLLLKA [compound 431]
326.66

Follow-up entry: LIRLWSHLIHIWFQNRRLKWKKK [compound 466]
425.60

Follow-up entry: KTVLLRKLLKLLVRKI [compound 342, designed model peptide, FAM-labeled CPP]
855.56

----------
System: HeLa cells
Experiment: CPP uptake experiment: cellular fluorescence of FAM-labeled CPPs
Type: cell-based, human
Details: HeLa cells after incubation with 10 µM FAM-labeled CPP, 90 min, 37 °C; mean of two experiments (Table 1)
Experimental: The human cervix adenocarcinoma cell line HeLa was obtained from I.A.Z. (Munich, Germany). […] All solutions used were warmed to 37 °C, with CPP incubation performed at 37 °C and 5% CO2. […] After incubation, the cells were washed twice with 300 µl of CM-PBS (PAA Laboratories), then 100 µl CM-PBS was added before determining fluorescence intensities in a plate reader (SpectraMax M5, Molecular Devices, Sunnyvale, CA) at an excitation wavelength of 495 nm and an emission wavelength of 530 nm. […]
Catalogue of sequences with associated Fluorescence (RFU)
Enter your answer as a number in RFU; do not include the unit.

seq_text="KKKKKKKKKKKKKKKKKKK [compound 412, designed model peptide, FAM-labeled CPP]" value_kind="Fluorescence (RFU)" measurement_units=RFU observed_measurement=632.01
seq_text="KALAKALAKLWKALAKAA [compound 373]" value_kind="Fluorescence (RFU)" measurement_units=RFU observed_measurement=345.58

Report Fluorescence (RFU) for PKKKRKVALWKTLLKKVLKA [compound 415] please.
390.81

Follow-up entry: KLALKLALKALKAALK [compound 296, designed model peptide, FAM-labeled CPP]
478.40

----------
system: HeLa cells; test: CPP uptake experiment: cellular fluorescence of FAM-labeled CPPs; type: cell-based, human; details: HeLa cells after incubation with 10 µM FAM-labeled CPP, 90 min, 37 °C; mean of two experiments (Table 1)
value.kind: Fluorescence (RFU)
Enter your answer as a number in RFU; do not include the unit.

Here's what some known entries look like.
seq_text="VKRKKKPALWKTLLKKVLKA [compound 416, CPP derived from the antimicrobial peptide dermaseptin S4 attached to a nuclear localization signal, FAM-labeled]" observed_measurement=925.42
seq_text="KLAAALLKKWKKLAAALL [compound 375]" observed_measurement=335.89
seq_text="GLWRALWRGLRSLWKKKRKV [compound 427]" observed_measurement=375.17

Report Fluorescence (RFU) for GLWRALWRGLRSLWKLKRKV [compound 426] please.
347.66

Cited source for all entries: paper PMC6058608
